Values compiled from patent US20220389057A1.

- test description: Isothermal titration calorimetry (ITC), binding to ganglioside GM1
- conditions used: first binding step, Table 1, pH 7.2, 35° C., read-out: KD1/nM
quantity name: Kd (nM)
Give the value in nM but do not write nM after it.

Trp-β^3-homo-Tyr-Lys-Tyr-Trp [WbYKYW]; 60
β^3-homo-Trp-Tyr-Lys-Tyr-Trp [bWYKYW]; 4.3

Value of measured Kd for the entry Trp-Tyr-Lys-β^3-homo-Tyr-Trp [WYKbYW] : 40

---

# Kd values compiled below
- test description: Isothermal titration calorimetry (ITC), binding to ganglioside GM1
- conditions used: first binding step, Table 1, pH 7.2, 35° C., read-out: KD1/nM
Give the value in nM but do not write nM after it.

// known answers, use as guide
NCCCC[C@H](NC(=O)[C@@H](Cc1ccc(O)cc1)NC(=O)[C@@H](N)Cc1c[nH]c2ccccc12)C(=O)N[C@@H](Cc1ccc(O)cc1)C(=O)N[C@@H](Cc1c[nH]c2ccccc12)C(N)=O [WyKYW]; 892
NCCCC[C@H](NC(=O)[C@H](Cc1ccc(O)cc1)NC(=O)[C@@H](N)Cc1c[nH]c2ccccc12)C(=O)N[C@H](Cc1ccc(O)cc1)C(=O)N[C@@H](Cc1c[nH]c2ccccc12)C(N)=O [WYKyW]; 3240
NCCCC[C@@H](NC(=O)[C@H](Cc1ccc(O)cc1)NC(=O)[C@@H](N)Cc1c[nH]c2ccccc12)C(=O)N[C@@H](Cc1ccc(O)cc1)C(=O)N[C@@H](Cc1c[nH]c2ccccc12)C(N)=O [WYkYW]; 4520
NCCCC[C@H](NC(=O)[C@H](Cc1ccc(O)cc1)NC(=O)[C@@H](N)Cc1c[nH]c2ccccc12)C(=O)N[C@@H](Cc1ccc(O)cc1)C(=O)N[C@H](Cc1c[nH]c2ccccc12)C(N)=O [WYKYw]; 3930

Lab note: next molecule to report on.
Value of measured Kd for the entry NCCCC[C@H](NC(=O)[C@H](Cc1ccc(O)cc1)NC(=O)[C@H](N)Cc1c[nH]c2ccccc12)C(=O)N[C@@H](Cc1ccc(O)cc1)C(=O)N[C@@H](Cc1c[nH]c2ccccc12)C(N)=O [wYKYW] : 881
